# STUDY_TARGET: Peroxisome proliferator-activated receptor gamma/Nuclear receptor coactivator 1 (Homo sapiens, UniProt P37231)
# Sequence (P37231 whole entry): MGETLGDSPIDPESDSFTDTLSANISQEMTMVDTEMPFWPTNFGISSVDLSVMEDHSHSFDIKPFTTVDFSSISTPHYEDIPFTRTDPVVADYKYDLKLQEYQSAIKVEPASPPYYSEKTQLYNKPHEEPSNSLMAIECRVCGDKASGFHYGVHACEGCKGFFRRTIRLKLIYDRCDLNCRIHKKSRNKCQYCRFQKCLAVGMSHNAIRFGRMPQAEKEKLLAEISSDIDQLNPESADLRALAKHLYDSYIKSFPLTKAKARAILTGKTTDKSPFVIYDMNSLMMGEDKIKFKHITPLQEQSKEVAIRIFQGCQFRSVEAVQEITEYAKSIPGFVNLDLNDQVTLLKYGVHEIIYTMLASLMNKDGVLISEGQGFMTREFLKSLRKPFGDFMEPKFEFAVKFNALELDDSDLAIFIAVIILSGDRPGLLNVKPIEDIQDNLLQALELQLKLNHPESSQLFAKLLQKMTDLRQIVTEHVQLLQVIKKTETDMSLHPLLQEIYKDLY
# Sequence (Q15788 whole entry, further chain): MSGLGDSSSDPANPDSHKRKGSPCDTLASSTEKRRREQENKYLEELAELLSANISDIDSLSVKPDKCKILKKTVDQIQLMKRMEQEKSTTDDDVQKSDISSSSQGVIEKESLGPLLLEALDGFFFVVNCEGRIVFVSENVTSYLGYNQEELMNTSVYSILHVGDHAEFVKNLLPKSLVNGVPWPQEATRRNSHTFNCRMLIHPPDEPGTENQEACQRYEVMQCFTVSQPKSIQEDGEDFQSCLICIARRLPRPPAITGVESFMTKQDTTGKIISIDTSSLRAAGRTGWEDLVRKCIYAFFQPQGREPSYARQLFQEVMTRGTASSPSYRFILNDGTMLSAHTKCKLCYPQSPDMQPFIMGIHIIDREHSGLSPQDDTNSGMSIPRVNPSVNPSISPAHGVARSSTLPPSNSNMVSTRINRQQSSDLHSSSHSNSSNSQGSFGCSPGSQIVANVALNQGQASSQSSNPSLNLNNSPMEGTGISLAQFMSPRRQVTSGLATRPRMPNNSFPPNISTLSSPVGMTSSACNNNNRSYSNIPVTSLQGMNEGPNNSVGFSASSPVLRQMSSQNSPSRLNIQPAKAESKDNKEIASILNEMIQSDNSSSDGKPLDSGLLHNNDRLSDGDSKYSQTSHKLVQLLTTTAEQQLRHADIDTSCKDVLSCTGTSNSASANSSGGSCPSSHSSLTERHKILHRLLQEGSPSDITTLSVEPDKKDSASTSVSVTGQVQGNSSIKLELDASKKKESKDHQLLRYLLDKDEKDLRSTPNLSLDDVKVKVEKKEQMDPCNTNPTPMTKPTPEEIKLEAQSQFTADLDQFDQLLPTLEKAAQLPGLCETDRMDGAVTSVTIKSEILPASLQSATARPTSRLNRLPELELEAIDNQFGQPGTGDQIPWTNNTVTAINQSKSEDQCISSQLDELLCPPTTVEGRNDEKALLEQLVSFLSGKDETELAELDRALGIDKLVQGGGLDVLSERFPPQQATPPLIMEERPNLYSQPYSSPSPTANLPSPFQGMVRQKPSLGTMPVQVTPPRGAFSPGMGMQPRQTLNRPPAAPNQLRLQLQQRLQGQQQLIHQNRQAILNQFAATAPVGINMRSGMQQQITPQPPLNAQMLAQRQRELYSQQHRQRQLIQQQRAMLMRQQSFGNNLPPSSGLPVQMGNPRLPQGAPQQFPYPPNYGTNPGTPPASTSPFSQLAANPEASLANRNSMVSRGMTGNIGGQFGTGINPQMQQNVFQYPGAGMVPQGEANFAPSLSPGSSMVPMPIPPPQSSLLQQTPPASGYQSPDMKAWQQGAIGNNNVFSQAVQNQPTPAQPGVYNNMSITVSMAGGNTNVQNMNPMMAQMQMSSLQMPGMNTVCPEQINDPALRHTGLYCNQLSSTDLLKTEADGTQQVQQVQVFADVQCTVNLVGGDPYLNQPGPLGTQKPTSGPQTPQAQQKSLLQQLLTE
# PROTOCOL_TEXT: TR-FRET dose response biochemical High Throughput Screening assay for agonists of the steroid receptor coactivator 1 (SRC-1) recruitment by the peroxisome proliferator-activated receptor gamma (PPAR gamma): non-selective agonists. [Related pubchem assays (depositor defined):AID1300, AID1808, AID504735, AID631]
# Format: protein assay
Active and inactive are the calls of the source. Cut-off read from the data, not from the text of the source: active = EC50 of 10 µM or less and inactive = more.
API: response.call in active, inactive

IN: Lab log entry: O=C(Nc1nnc(-c2ccco2)s1)C1CCN(S(=O)(=O)c2ccc(Cl)cc2)CC1 — outcome as called in the assay?
OUT: inactive

IN: What outcome does the record of this test show for CCCCNC(=O)CSc1cc(=O)n(C)c2ccccc12 ?
OUT: inactive

IN: Each compound tested received a call. Report the one for CCn1c(=O)cc(SCC(=O)Nc2cccnc2)c2ccccc21 .
OUT: inactive

IN: Dear all, I need the recorded test outcome for Cc1cc(SCC(=O)c2ccc3c(c2)OCO3)nc2ccccc12 , thank you.
OUT: inactive

IN: Please state the recorded outcome for this compound: O=C(Cc1cccc2ccccc12)Nc1ccc(-c2cc3ccccc3oc2=O)cc1
OUT: inactive

IN: For Cc1sc(NC(=S)Nc2ccc(F)cc2)c(C(N)=O)c1C , which call appears in the assay record?
OUT: active
